# System: HepG2 hepatocellular carcinoma
# MEASUREMENT NOTES: Relative colony forming efficiency after antisense treatment (Table 13, FIG. 12)
# Type: cell-based, human
# SETTINGS: 0.2 μM antisense oligodeoxyribonucleotide phosphorothioate; HepG2 cells; averages of 2-8 determinations
Strand notation (5' to 3'): a small letter for the sugar, then the base; units joined by * are phosphorothioate-linked, units joined directly phosphodiester-linked; [ ] holds rarer units or linkages, { } end groups; capitals alone tell only the bases. d = 2'-deoxy (DNA)
Here the recorded Reduced relative colony forming efficiency, expressed as % inhibition, HepG2 is given for each entry.
MEASURED PARAMETER: Reduced relative colony forming efficiency, expressed as % inhibition, HepG2 (%)

BIOPOLYMER SEQUENCE	SYSTEM NAME	UNIT SPEC	VALUE REPORTED
ACCCTTCCCATTGGCTGCGC (dA*dC*dC*dC*dT*dT*dC*dC*dC*dA*dT*dT*dG*dG*dC*dT*dG*dC*dG*dC; antisense) [AS-II-6-20]	HepG2 hepatocellular carcinoma	%	97.89
CGCGCTCCCGGCCC (dC*dG*dC*dG*dC*dT*dC*dC*dC*dG*dG*dC*dC*dC) [AS-II-79-14]	HepG2 hepatocellular carcinoma	%	70.81
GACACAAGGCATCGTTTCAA (antisense; DNA, all phosphorothioate, methylation of C not given here) [AS-II-784-20]	HepG2 hepatocellular carcinoma	%	80.89
